Values compiled from BigSolDB 2.1.

conditions: in acetone, 293.15 K
Quantity: solubility (mole fraction)
Please give the numeric answer without any surrounding text.

Query string: Bench note: what solubility (mole fraction) did `CC[C@H](CC[C@@H](C)[C@H]1CC[C@H]2[C@@H]3CC=C4C[C@@H](O)CC[C@]4(C)[C@H]3CC[C@]12C)C(C)C` show?
Result string: 0.00446

----------
conditions: in acetone, 288.15 K
Quantity: solubility (mole fraction)

Query string: What value of measured solubility (mole fraction) is listed for `CC[C@H](CC[C@@H](C)[C@H]1CC[C@H]2[C@@H]3CC=C4C[C@@H](O)CC[C@]4(C)[C@H]3CC[C@]12C)C(C)C` ?
Result string: 0.00379

----------
settings: in acetone, 323.15 K
Quantity: solubility (mole fraction)

Query string: May I ask what solubility (mole fraction) has been recorded for `CC[C@H](CC[C@@H](C)[C@H]1CC[C@H]2[C@@H]3CC=C4C[C@@H](O)CC[C@]4(C)[C@H]3CC[C@]12C)C(C)C` ?
Result string: 0.0118

----------
conditions: in ethanol, 303.15 K
Quantity: solubility (mole fraction)
Number, no unit, nothing else.

Query string: Query: solubility (mole fraction); subject: `CC[C@H](CC[C@@H](C)[C@H]1CC[C@H]2[C@@H]3CC=C4C[C@@H](O)CC[C@]4(C)[C@H]3CC[C@]12C)C(C)C`
Result string: 0.00328

----------
settings: in ethyl acetate, 293.15 K
Quantity: solubility (mole fraction)

Query string: Name the reported solubility (mole fraction) value associated with the compound `CC[C@H](CC[C@@H](C)[C@H]1CC[C@H]2[C@@H]3CC=C4C[C@@H](O)CC[C@]4(C)[C@H]3CC[C@]12C)C(C)C`
Result string: 0.00738

----------
details: in n-hexane, 283.15 K
Quantity: solubility (mole fraction)
The response must contain the number and no unit.

Query string: State the recorded solubility (mole fraction) for this entry: `CC[C@H](CC[C@@H](C)[C@H]1CC[C@H]2[C@@H]3CC=C4C[C@@H](O)CC[C@]4(C)[C@H]3CC[C@]12C)C(C)C`
Result string: 0.00103

----------
settings: in methanol, 278.15 K
Quantity: solubility (mole fraction)
Write the number on its own, no unit after it.

Query string: Which measured solubility (mole fraction) value corresponds to `CC[C@H](CC[C@@H](C)[C@H]1CC[C@H]2[C@@H]3CC=C4C[C@@H](O)CC[C@]4(C)[C@H]3CC[C@]12C)C(C)C` ?
Result string: 0.000136

----------
conditions: in n-hexane, 293.15 K
Quantity: solubility (mole fraction)
Give the figure only, with no unit attached.

Query string: Give its solubility (mole fraction) value. Item: `CC[C@H](CC[C@@H](C)[C@H]1CC[C@H]2[C@@H]3CC=C4C[C@@H](O)CC[C@]4(C)[C@H]3CC[C@]12C)C(C)C`
Result string: 0.00147

----------
conditions: in ethyl acetate, 288.15 K
Quantity: solubility (mole fraction)

Query string: Recorded solubility (mole fraction) of `CC[C@H](CC[C@@H](C)[C@H]1CC[C@H]2[C@@H]3CC=C4C[C@@H](O)CC[C@]4(C)[C@H]3CC[C@]12C)C(C)C` , please.
Result string: 0.00627

----------
details: in n-hexane, 313.15 K
Quantity: solubility (mole fraction)
Response field accepts a number only; no unit should be typed.

Query string: Reported solubility (mole fraction), compound `CC[C@H](CC[C@@H](C)[C@H]1CC[C@H]2[C@@H]3CC=C4C[C@@H](O)CC[C@]4(C)[C@H]3CC[C@]12C)C(C)C` : ____
Result string: 0.0028
